- Measured target: Epidermal Growth Factor Receptor (EGFR) (Homo sapiens (Human), UniProt P00533)
- Sequence (P00533 25-1210): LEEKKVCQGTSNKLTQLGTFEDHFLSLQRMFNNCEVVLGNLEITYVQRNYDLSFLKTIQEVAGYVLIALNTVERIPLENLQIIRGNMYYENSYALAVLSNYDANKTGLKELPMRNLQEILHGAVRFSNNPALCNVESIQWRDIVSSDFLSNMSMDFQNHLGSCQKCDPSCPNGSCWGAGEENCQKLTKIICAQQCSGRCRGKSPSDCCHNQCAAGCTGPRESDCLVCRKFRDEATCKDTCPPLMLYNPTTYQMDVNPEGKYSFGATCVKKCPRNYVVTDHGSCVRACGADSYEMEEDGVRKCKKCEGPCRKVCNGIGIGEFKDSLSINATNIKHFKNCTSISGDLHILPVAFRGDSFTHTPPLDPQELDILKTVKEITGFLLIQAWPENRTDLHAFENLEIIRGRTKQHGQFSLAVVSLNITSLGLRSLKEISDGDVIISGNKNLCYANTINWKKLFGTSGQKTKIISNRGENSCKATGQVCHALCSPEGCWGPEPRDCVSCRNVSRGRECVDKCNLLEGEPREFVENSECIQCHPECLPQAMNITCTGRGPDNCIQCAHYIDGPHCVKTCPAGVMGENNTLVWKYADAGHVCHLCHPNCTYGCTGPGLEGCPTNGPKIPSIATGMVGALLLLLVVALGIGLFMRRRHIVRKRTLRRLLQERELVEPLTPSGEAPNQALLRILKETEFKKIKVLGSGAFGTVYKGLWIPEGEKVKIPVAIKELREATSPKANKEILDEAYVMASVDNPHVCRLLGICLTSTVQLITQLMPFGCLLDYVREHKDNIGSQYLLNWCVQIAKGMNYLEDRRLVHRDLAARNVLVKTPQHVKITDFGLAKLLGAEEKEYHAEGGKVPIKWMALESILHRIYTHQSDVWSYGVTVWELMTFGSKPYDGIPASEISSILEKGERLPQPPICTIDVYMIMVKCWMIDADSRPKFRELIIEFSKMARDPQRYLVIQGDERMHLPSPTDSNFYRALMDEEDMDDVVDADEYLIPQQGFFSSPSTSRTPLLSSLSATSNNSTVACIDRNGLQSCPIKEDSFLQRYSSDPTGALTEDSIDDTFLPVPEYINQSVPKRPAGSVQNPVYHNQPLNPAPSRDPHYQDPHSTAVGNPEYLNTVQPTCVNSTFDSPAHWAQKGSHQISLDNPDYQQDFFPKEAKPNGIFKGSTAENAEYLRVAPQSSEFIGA
- Experiment notes: EGFR HTRF kinase assay
- Format: biochemical
- Test parameters: EGFR affinity-purified from A431 cells, 10 μM ATP, 30 min at 22° C.
- Protocol: EGFR inhibitory activity of compounds of the present invention is quantified employing the EGFR HTRF assay as described in the following paragraphs: […] The resulting mixture is incubated for 1 h at 22° C. to allow the binding of the biotinylated phosphorylated peptide to the streptavidine-XLent and the PT66-Eu-Chelate. Subsequently, the amount of phosphorylated substrate is evaluated by measurement of the resonance energy transfer from the PT66-Eu-Chelate to the streptavidine-XLent. […]
pIC50: −log10 of the molar value.
Entries and their pIC50
Test readout: pIC50

[[record]]
compound = "O=C(/C=C/CN1CCCOCC1)N1CCCc2c(sc3ncnc(Nc4ccc(Cl)c(Cl)c4)c23)C1 [Example 143]"
obs_value = 9.00

[[record]]
compound = "O=C(/C=C/CN1CCCOCC1)N1CCc2c(sc3ncnc(Nc4ccc(F)c(Cl)c4)c23)C1 [Example 5]"
obs_value = 9.00

[[record]]
compound = "CN(C)C(=O)N1CCN(C/C=C/C(=O)N2CCc3c(sc4ncnc(Nc5ccc(F)c(Cl)c5)c34)C2)CC1 [Example 70]"
obs_value = 9.00

[[record]]
compound = "N#Cc1cnc2sc3c(c2c1Nc1ccc(Cl)c(Cl)c1)CCN(C(=O)/C=C/CN1CCCOCC1)C3 [Example 148]"
obs_value = 8.37

[[record]]
compound = "CC(C)N(C)C/C=C/C(=O)N1CCc2sc3ncnc(Nc4ccc(Cl)c(Cl)c4)c3c2C1 [Example 139]"
obs_value = 8.04

[[record]]
compound = "CN1CCC[C@H]1/C=C/C(=O)N1CCc2c(sc3ncnc(Nc4ccc(F)c(Cl)c4)c23)C1 [Example 14]"
obs_value = 9.00

[[record]]
compound = "CC(C)N(C)C/C=C/C(=O)N1CCc2c(sc3ncc(C#N)c(Nc4ccc5c(cnn5Cc5cccc(F)c5)c4)c23)C1 [Example 151]"
obs_value = 8.19

[[record]]
compound = "CC(C)(CN1CCOCC1)NC/C=C/C(=O)N1CCc2c(sc3ncnc(Nc4ccc(F)c(Cl)c4)c23)C1 [Example 12]"
obs_value = 9.00

[[record]]
compound = "C[C@@H](Nc1ncnc2sc3c(c12)CCN(C(=O)/C=C/CN(C)C)C3)c1ccccc1 [Example 23]"
obs_value = 8.34

[[record]]
compound = "CN(C/C=C/C(=O)N1CCc2c(sc3ncnc(Nc4cc(O)c(Cl)c(Cl)c4)c23)C1)C(C)(C)C [Example 134]"
obs_value = 9.00

[[record]]
compound = "O=C(/C=C/[C@@H]1CCCN1)N1CCc2c(sc3ncnc(Nc4ccc(F)c(Cl)c4)c23)C1 [Example 13]"
obs_value = 8.70

[[record]]
compound = "CN(C)C/C=C/C(=O)N1Cc2sc3ncnc(Nc4ccc(OCc5cccc(F)c5)c(Cl)c4)c3c2C1 [Example 86]"
obs_value = 8.30

[[record]]
compound = "CN(C)C/C=C/C(=O)N1Cc2sc3ncnc(Nc4ccc(F)c(Cl)c4)c3c2C1 [Example 81]"
obs_value = 7.92

[[record]]
compound = "CN(C)C/C=C/C(=O)N1CCc2c(sc3ncc(C#N)c(Nc4ccc(F)c(Cl)c4)c23)C1 [Example 95]"
obs_value = 8.00

[[record]]
compound = "COCCN(C/C=C/C(=O)N1CCc2c(sc3ncnc(Nc4ccc(F)c(Cl)c4)c23)C1)CCOC [Example 31]"
obs_value = 9.00

[[record]]
compound = "CN(C)C/C=C/C(=O)N1Cc2sc3ncnc(Nc4ccc(OCc5ccccn5)c(Cl)c4)c3c2C1 [Example 87]"
obs_value = 7.72

[[record]]
compound = "CC(C)N(C)C/C=C/C(=O)N1CCc2c(oc3ncnc(Nc4ccc(F)c(Cl)c4)c23)C1 [Example 90]"
obs_value = 9.00

[[record]]
compound = "O=C(/C=C/CN1C2CCC1CC2)N1CCc2c(sc3ncnc(Nc4ccc(F)c(Cl)c4)c23)C1 [Example 10]"
obs_value = 8.96

